Experiment: Evaluation of stability in liver microsome
Details: mouse liver microsome 0.25 mg/mL, 1 μM test compound, 37° C. for 30 minutes
As shown below, each of these compounds has a reported Remaining (%) value.

Guide cases for Remaining (%), answers given:
1. COCc1ccc(NC(=O)c2c(OCC3CCCC3)n(C3(C)CC3)c3ncnc(N)c23)cc1    52%
2. COCc1ccc(NC(=O)c2c(OCCN3CCCC3=O)n(C3(C)CC3)c3ncnc(N)c23)cc1    78%

stdin: Supply reported Remaining (%) belonging to this compound: COCc1ccc(NC(=O)c2c(C(C)=O)n(C3(C)CC3)c3ncnc(N)c23)cc1
stdout: 89%

stdin: Supply reported Remaining (%) belonging to this compound: COCc1ccc(NC(=O)c2cn(C3(C)CC3)c3ncnc(N)c23)cc1
stdout: 73%
